Measured Concentration of peptide that induces 20% of HLA-A2 expression by item
assaySystem: HLA-A*0201 (Homo sapiens, UniProt P04439, D140Y/D185E/D98H/E176V/E277Q/G131W/G231S/I119V/I121R/I166T/I218V/L300P/L318F/N151K/N90K/P208A/P217A/Q86G/Q94H/R138H/R169H/T345S)
testSettings: T2 cell line; HLA-A*0201; Example 13, protocol as in Example 3
quantityName: Concentration of peptide that induces 20% of HLA-A2 expression (µM)

# constructSequence, quantitativeReadout
records = [
    ("FMPFGFILGV [IL13RA2-B3]", 3.3),
    ("YLPFGFILV [IL13RA2-B5]", 1.5),
    ("YLYTFLIST [IL13RA2-B2]", 4.5),
    ("FMPFGFILPI [IL13RA2-B6]", 5.9),
    ("FLPFGFILV [IL13RA2-B]", 1.9),
    ("ALPFGFILV [1A9V, reference compound]", 20.9),
    ("YMPFGFILV [IL13RA2-B4]", 4.5),
    ("WLPFGFILI [IL13RA2-H, reference compound]", 62.3),
]
